# Test system: L. infantum (LV50 and Drep-14) and L. major (Empa-12) promastigotes
# EXPERIMENT NOTES: MTT promastigote viability assay, stated across the three strains
# Format: cell-based, Leishmania infantum, Leishmania major
# TEST SETTINGS: three strains, 72 h, at the tested concentrations
REPORTED ENDPOINT: Effect on promastigote viability

molecule="CCc1cc(C(N)=S)ccn1 [Ethionamide]" result="no effectiveness"
molecule=Nc1nc(O)c2ncn(COC(CO)CO)c2n1 result="no effectiveness"

----------
Reported IC50 values follow for various molecules
# Test system: L. major Empa-12 promastigotes
# EXPERIMENT NOTES: MTT-based promastigote viability assay, L. major Empa-12
# Format: cell-based
# TEST SETTINGS: Leishmania major; Empa-12, 72 h, MTT; read-out: Promastigotes IC50
REPORTED ENDPOINT: IC50

molecule="CCCNC(C)C(=O)Nc1ccccc1C (centres unmarked) [Prilocaine]" reported_endpoint=IC50 result="33.1 µg/mL"
molecule="CCCC(=O)Nc1ccc(OCC(O)CNC(C)C)c(C(C)=O)c1 (centres unmarked) [Acebutolol]" reported_endpoint=IC50 result="103 µg/mL"
molecule="CCCCOc1cc(C(=O)NCCN(CC)CC)c2ccccc2n1 [Dibucaine]" reported_endpoint=IC50 result="1.04 µg/mL"
molecule="CNC[C@H](O)c1cccc(O)c1 [Phenylephrine]" reported_endpoint=IC50 result="> 200 µg/mL"
molecule="C[C@@H]1[C@H](O)[C@@H](C)/C=C/C=C/C=C/C=C/C=C/C=C/C=C/[C@H](O[C@@H]2O[C@H](C)[C@@H](O)[C@H](N)[C@@H]2O)C[C@@H]2O[C@](O)(C[C@@H](O)C[C@@H](O)[C@H](O)CC[C@@H](O)C[C@@H](O)CC(=O)O[C@H]1C)C[C@H](O)[C@H]2C(=O)O [Amphotericin B]" reported_endpoint=IC50 result="0.2 µg/mL"

----------
# System: L. infantum (LV50 and Drep-14) and L. major (Empa-12) promastigotes
# EXPERIMENT NOTES: MTT promastigote viability assay, stated across the three strains
# Assay type: cell-based, Leishmania infantum, Leishmania major
# TEST SETTINGS: Leishmania infantum; LV50, Drep-14, Empa-12; 72 h, MTT; read-out: Promastigotes IC50, span over the three strains
Reported IC50 values follow for various compounds
REPORTED ENDPOINT: IC50

compound=CNC[C@H](O)c1cccc(O)c1 reported_endpoint=IC50 result="> 200 µg/mL"
compound="CCCNC(C)C(=O)Nc1ccccc1C (centres unmarked)" reported_endpoint=IC50 result="33.1 to 45.8 µg/mL"
compound=CCCCOc1cc(C(=O)NCCN(CC)CC)c2ccccc2n1 reported_endpoint=IC50 result="0.58 to 1.05 µg/mL"
compound=C[C@@H]1[C@H](O)[C@@H](C)/C=C/C=C/C=C/C=C/C=C/C=C/C=C/[C@H](O[C@@H]2O[C@H](C)[C@@H](O)[C@H](N)[C@@H]2O)C[C@@H]2O[C@](O)(C[C@@H](O)C[C@@H](O)[C@H](O)CC[C@@H](O)C[C@@H](O)CC(=O)O[C@H]1C)C[C@H](O)[C@H]2C(=O)O reported_endpoint=IC50 result="0.15 to 0.2 µg/mL"
compound="CCCC(=O)Nc1ccc(OCC(O)CNC(C)C)c(C(C)=O)c1 (centres unmarked)" reported_endpoint=IC50 result="69.3 to 146 µg/mL"

----------
# EXPERIMENT NOTES: Cytotoxicity assay towards THP-1-derived macrophages (MTT)
# Assay type: cell-based, human
# TEST SETTINGS: human, THP-1-derived macrophages (PMA-differentiated); at the IC50 value on the promastigotes; read-out: Macrophage viability
REPORTED ENDPOINT: viability

compound="CCCNC(C)C(=O)Nc1ccccc1C (stereo not shown) [Prilocaine]" result="90 to 100%"

----------
# Tested on: L. infantum (LV50 and Drep-14) and L. major (Empa-12) promastigotes
# EXPERIMENT NOTES: MTT promastigote viability assay, stated across the three strains
# Assay type: cell-based, Leishmania infantum, Leishmania major
# TEST SETTINGS: three strains, 72 h, at the tested concentrations
REPORTED ENDPOINT: Effect on promastigote viability

molecule="NS(=O)(=O)c1cc2c(cc1Cl)N=C(CSCc1ccccc1)NS2(=O)=O [Benzthiazide]" experimental_target="L. infantum (LV50 and Drep-14) and L. major (Empa-12) promastigotes" reported_endpoint="Effect on promastigote viability" result="no effectiveness"
molecule=CCCSc1ccc2nc(NC(=O)OC)[nH]c2c1 experimental_target="L. infantum (LV50 and Drep-14) and L. major (Empa-12) promastigotes" reported_endpoint="Effect on promastigote viability" result="no effectiveness"
molecule=C=C(CC)C(=O)c1ccc(OCC(=O)O)c(Cl)c1Cl experimental_target="L. infantum (LV50 and Drep-14) and L. major (Empa-12) promastigotes" reported_endpoint="Effect on promastigote viability" result="no effectiveness"

----------
# Test system: L. infantum Drep-14 promastigotes
# EXPERIMENT NOTES: microbe, parasite or virus in culture
# Format: cell-based
# TEST SETTINGS: Leishmania infantum, 72 h, read-out: Promastigotes IC50 (in brackets)
Reported IC50 values follow for various compounds
REPORTED ENDPOINT: IC50 (µM)

compound="CCCC(=O)Nc1ccc(OCC(O)CNC(C)C)c(C(C)=O)c1 (centres unmarked)" reported_endpoint=IC50 relation_symbol== quantitative_result=186
compound="CCCNC(C)C(=O)Nc1ccccc1C (centres unmarked)" reported_endpoint=IC50 relation_symbol== quantitative_result=158
compound=CNC[C@H](O)c1cccc(O)c1 reported_endpoint=IC50 relation_symbol=> quantitative_result=1200
compound=CCCCOc1cc(C(=O)NCCN(CC)CC)c2ccccc2n1 reported_endpoint=IC50 relation_symbol== quantitative_result=2.76
compound=C[C@@H]1[C@H](O)[C@@H](C)/C=C/C=C/C=C/C=C/C=C/C=C/C=C/[C@H](O[C@@H]2O[C@H](C)[C@@H](O)[C@H](N)[C@@H]2O)C[C@@H]2O[C@](O)(C[C@@H](O)C[C@@H](O)[C@H](O)CC[C@@H](O)C[C@@H](O)CC(=O)O[C@H]1C)C[C@H](O)[C@H]2C(=O)O reported_endpoint=IC50 relation_symbol== quantitative_result=0.22

----------
# Test system: L. major Empa-12 promastigotes
# EXPERIMENT NOTES: MTT-based promastigote viability assay, L. major Empa-12
# Type: cell-based
# TEST SETTINGS: Leishmania major; Empa-12, 72 h, MTT; read-out: Promastigotes IC50 (in brackets) (converted)
REPORTED ENDPOINT: IC50 (µM)

compound="CNC[C@H](O)c1cccc(O)c1 [Phenylephrine]" units_label=µM relation_symbol=> quantitative_result=1200
compound="CCCCOc1cc(C(=O)NCCN(CC)CC)c2ccccc2n1 [Dibucaine]" units_label=µM relation_symbol== quantitative_result=2.74
compound="CCCC(=O)Nc1ccc(OCC(O)CNC(C)C)c(C(C)=O)c1 (centres unmarked) [Acebutolol]" units_label=µM relation_symbol== quantitative_result=276
compound="CCCNC(C)C(=O)Nc1ccccc1C (centres unmarked) [Prilocaine]" units_label=µM relation_symbol== quantitative_result=150
compound="C[C@@H]1[C@H](O)[C@@H](C)/C=C/C=C/C=C/C=C/C=C/C=C/C=C/[C@H](O[C@@H]2O[C@H](C)[C@@H](O)[C@H](N)[C@@H]2O)C[C@@H]2O[C@](O)(C[C@@H](O)C[C@@H](O)[C@H](O)CC[C@@H](O)C[C@@H](O)CC(=O)O[C@H]1C)C[C@H](O)[C@H]2C(=O)O [Amphotericin B]" units_label=µM relation_symbol== quantitative_result=0.22

Values from paper PMC11464777
